Cited source for all entries: ChEMBL document CHEMBL1146013

This section lists Ki readings for UniProtKB O60755.
Sequence (O60755 whole entry): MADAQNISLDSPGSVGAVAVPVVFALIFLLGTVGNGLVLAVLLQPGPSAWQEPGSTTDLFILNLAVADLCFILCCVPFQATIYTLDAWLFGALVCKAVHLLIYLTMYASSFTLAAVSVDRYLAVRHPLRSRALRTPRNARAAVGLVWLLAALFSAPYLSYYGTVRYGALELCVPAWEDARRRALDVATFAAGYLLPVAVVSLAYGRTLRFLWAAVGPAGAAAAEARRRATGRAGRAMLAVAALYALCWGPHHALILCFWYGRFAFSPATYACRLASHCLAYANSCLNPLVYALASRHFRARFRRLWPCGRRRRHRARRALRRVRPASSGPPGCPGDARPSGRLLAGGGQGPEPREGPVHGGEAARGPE

# example entries with known answers
>>> test_result("CCN(CC)CCCCOc1ccc(N2C(=O)/C(=N/c3cccc(C(F)(F)F)c3)c3ccccc32)cc1")
"70 nM"
>>> test_result("CN(C)CCOc1ccc(N2C(=O)/C(=N/c3cccc(C(F)(F)F)c3)c3ccccc32)cc1")
"89 nM"
>>> test_result("CCN(CC)COc1cccc(N2C(=O)/C(=N/c3cccc(C(F)(F)F)c3)c3ccccc32)c1")
"38 nM"
>>> test_result("CCN(CC)CCOc1ccc(N2C(=O)/C(=N/c3cccc(C(F)(F)F)c3)c3ccccc32)cc1")
"78 nM"
>>> test_result("CCN(CC)CCOc1ccccc1N1C(=O)/C(=N/c2cccc(C(F)(F)F)c2)c2ccccc21")
"1000 nM"
>>> test_result("O=C1/C(=N/c2cccc(C(F)(F)F)c2)c2ccccc2N1c1ccccc1")
"17 nM"
>>> test_result("CN(C)CCOc1cccc(N2C(=O)/C(=N/c3cccc(C(F)(F)F)c3)c3ccccc32)c1")
"26 nM"

Then there is this molecule:
# input molecule: CN(C)CCCOc1cccc(N2C(=O)/C(=N/c3cccc(C(F)(F)F)c3)c3ccccc32)c1 ; wanted: its Ki
29 nM
